Assign log10 of viscosity to each entry below.
conditions: 293.15 K; 101.33 kPa; Liquid; Concentric cylinders viscometry
Hey, these are logged values: log10 of viscosity, mPa·s being the unit before logging.

Input: # return recorded log10 of viscosity for entry CCn1cc[n+](C)c1.O=S(=O)([O-])O [1-ethyl-3-methylimidazolium hydrogen sulfate]
Output: 3.38

Input: # return recorded log10 of viscosity for entry CCCCOS(=O)(=O)[O-].CC[n+]1ccn(C)c1 [3-ethyl-1-methylimidazolium butyl sulfate]
Output: 2.38

Input: # return recorded log10 of viscosity for entry CCCCCCOS(=O)(=O)[O-].CC[n+]1ccn(C)c1 [3-ethyl-1-methyl-1H-imidazolium hexyl sulfate]
Output: 2.63

Input: # return recorded log10 of viscosity for entry CCCCCCCCOS(=O)(=O)[O-].CCn1cc[n+](C)c1 [1-ethyl-3-methylimidazolium octyl sulfate]
Output: 2.93

Input: # return recorded log10 of viscosity for entry CCn1cc[n+](C)c1.COS(=O)(=O)[O-] [1-ethyl-3-methylimidazolium methylsulfate]
Output: 2.00
